- particulars: 313.15 K; 40000 kPa; Liquid; Vibrating tube method
endpoint: mass density (kg/m3)

>>> observed_result("Cc1cccs1 [2-methylthiophene]")
1030.14
>>> observed_result("Cc1ccsc1 [3-methylthiophene]")
1031.05
>>> observed_result("c1ccsc1 [thiophene]")
1073.88
>>> observed_result("Cc1ccc(C)s1 [2,5-dimethylthiophene]")
995.92

###

- particulars: 288.15 K; 40000 kPa; Liquid; Vibrating tube method
endpoint: mass density (kg/m3)

>>> observed_result("Cc1ccsc1 [3-methylthiophene]")
1053.86
>>> observed_result("Cc1ccc(C)s1 [2,5-dimethylthiophene]")
1017.89
>>> observed_result("c1ccsc1 [thiophene]")
1099.5
>>> observed_result("Cc1cccs1 [2-methylthiophene]")
1053.43
